// provenance: a melting point compilation (Tetko et al.; mined from patent text by program, amines drawn as free bases though some values may be those of a salt)

Reported values of melting point for individual entries

Molecule	melting point
C=CCOc1ccc(NC(=O)CC(C#N)=C(C)O)cc1	162 to 164 °C
O=C(NOCC(O)CN1CCCCC1)c1cccc2ccccc12 (stereo unspecified)	104 to 107 °C
CCCc1nccn1NCc1cc(C(C)(C)C)c(O)c(C(C)(C)C)c1	122 to 123 °C
CCOc1cc2c(=O)[nH]cnc2cc1OC(C)C	204 to 205 °C
COc1ccc2c(n1)C1(CO2)C(=O)Nc2ccccc21 (stereo unspecified)	199 to 200 °C
O=C(CBr)C1=NO[C@@H](c2ccccc2)C1	31 to 33 °C
CC1(C)Nc2cc(F)ccc2NC1=O	148 to 149 °C
COc1ccc(-n2nc(Sc3cc(OC)cc(OC)c3)c(C)c(C#N)c2=O)cc1	181 to 184 °C
COc1c(N2CC(F)[C@](C)(N)C2)c(F)cc2c(=O)c(C(=O)O)cn([C@@H]3C[C@@H]3F)c12 (stereo partly specified)	160 to 163 °C
O=C(NCc1ccccn1)Nc1cc(-n2c(=O)oc3ccccc32)ccn1	237 to 238 °C
Cc1cc(C)c(Cc2nc(C)nc(Cl)c2C)c(C)c1	82 to 84 °C
Cc1nn(CCC(C)C)c(C)c1CC(=O)O	135 to 136 °C
CCOC(=O)c1cn2c(cc(OC(C)C)c3ccccc32)n1	127 to 129 °C
O=C(O)CCc1ccc2c(c1)OCO2	86.1 to 88.3 °C
COc1cc(C=O)ccc1OCc1nc(-c2cccc([N+](=O)[O-])c2)oc1C	179 to 180 °C
OC(CCl)CNc1nc2ccnc(-c3cccc(C(F)(F)F)c3)n2n1 (stereo unspecified)	141 to 142 °C
c1ccc(-c2nc3ncccc3o2)cc1	125 to 127 °C
Cc1c(O)cccc1C(=O)N[C@@H](Cc1ccccc1)[C@H](O)C(=O)N1CSC(C)(C)[C@H]1C(=O)N[C@@H](C)c1ccccc1	114 to 115 °C
CC(C)CCn1c(=O)c(=NNc2ccccc2)c(=O)n(-c2ccccc2)c2ccccc21	143 °C
CCCCc1nn(-c2cc(NC(=O)CC)ccc2Cl)c(=O)n1Cc1ccc(-c2ccccc2S(=O)(=O)NC(C)(C)C)cc1F	103 to 105 °C
O=C1CCC(N2C(=O)c3cccc(CNC(=O)c4cnccn4)c3C2=O)C(=O)N1 (stereo unspecified)	> 260 °C
